Target: Toll-like receptor 4/myeloid differentiation factor 2 (TLR4/MD-2) complex (UniProt Q9QUK6 26-835; Q9JHF9 19-160, The source, species and construct of the SPR protein are not stated. Mouse is inferred from the docking receptor (PDB 2Z64) and the mouse models. Limits by convention: TLR4 extracellular domain and ma)
Sequence (Q9QUK6 26-835, chain 1 of 2): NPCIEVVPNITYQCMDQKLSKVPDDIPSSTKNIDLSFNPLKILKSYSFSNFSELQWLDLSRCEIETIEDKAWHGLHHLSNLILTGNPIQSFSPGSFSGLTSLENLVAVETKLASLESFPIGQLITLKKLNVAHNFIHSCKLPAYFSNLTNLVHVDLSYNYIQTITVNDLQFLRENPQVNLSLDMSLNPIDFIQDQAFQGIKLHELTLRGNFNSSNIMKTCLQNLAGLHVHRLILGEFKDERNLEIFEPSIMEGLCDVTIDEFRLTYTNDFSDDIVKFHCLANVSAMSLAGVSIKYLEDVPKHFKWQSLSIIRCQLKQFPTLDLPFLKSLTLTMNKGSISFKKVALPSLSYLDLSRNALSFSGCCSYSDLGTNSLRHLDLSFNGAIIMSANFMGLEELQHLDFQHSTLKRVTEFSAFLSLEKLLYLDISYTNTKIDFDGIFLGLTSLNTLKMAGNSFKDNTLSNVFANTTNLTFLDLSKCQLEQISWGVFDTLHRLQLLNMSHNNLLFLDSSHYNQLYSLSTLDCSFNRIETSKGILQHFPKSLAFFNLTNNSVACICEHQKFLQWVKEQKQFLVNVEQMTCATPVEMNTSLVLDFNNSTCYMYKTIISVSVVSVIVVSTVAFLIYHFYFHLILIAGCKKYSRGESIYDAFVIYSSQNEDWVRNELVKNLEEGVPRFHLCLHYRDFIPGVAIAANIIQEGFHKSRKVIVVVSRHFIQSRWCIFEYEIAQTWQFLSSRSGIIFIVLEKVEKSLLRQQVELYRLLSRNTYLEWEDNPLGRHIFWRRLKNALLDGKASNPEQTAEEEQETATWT
Sequence (Q9JHF9 19-160, chain 2 of 2): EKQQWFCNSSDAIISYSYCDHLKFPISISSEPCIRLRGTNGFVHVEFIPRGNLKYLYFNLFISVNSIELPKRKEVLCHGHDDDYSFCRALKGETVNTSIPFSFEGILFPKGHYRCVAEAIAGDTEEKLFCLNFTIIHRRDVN
Test: SPR; Biacore X100, CM5 chip, amine coupling; running buffer PBS with 0.05% Tween 20, 30 μL/min; peptide gradient 0, 1.25, 2.5, 5 and 10 mM as printed; 1:1 binding model; legend and results: TLR4/MD-2 immobilised and DTP flowed over (the methods say DTP was immobilised)
Conditions: both partners purified
ATTRIBUTE MEASURED: pKd
Remember, pKd is on a log scale: it is -log10 of the molar concentration.

Look up pKd of NWYVKKCLNDVGICKKKCKPEEMHVKNGWAMCGKQRDCCRKDVY (DEFB126 (1-39): residues 21-59 of human β-defensin 126 (111 amino acids); thymopentin (TP5), the core active fragment of thymopoietin, full-length TP5; whether disulfide bonds form is left open by the authors; also called DTP; DTP peptide; source: synthetic peptide (KangLong Biochemistry, 95% purity)) [hybrid peptide DEFB126 (1-39)-TP5] and report it.
5.64
